target entity: panel of more than 300 wild-type and mutant kinases (313 kinase panel) (Homo sapiens, UniProt Q9H4B4)
Sequence (Q9H4B4 whole entry, change not shown): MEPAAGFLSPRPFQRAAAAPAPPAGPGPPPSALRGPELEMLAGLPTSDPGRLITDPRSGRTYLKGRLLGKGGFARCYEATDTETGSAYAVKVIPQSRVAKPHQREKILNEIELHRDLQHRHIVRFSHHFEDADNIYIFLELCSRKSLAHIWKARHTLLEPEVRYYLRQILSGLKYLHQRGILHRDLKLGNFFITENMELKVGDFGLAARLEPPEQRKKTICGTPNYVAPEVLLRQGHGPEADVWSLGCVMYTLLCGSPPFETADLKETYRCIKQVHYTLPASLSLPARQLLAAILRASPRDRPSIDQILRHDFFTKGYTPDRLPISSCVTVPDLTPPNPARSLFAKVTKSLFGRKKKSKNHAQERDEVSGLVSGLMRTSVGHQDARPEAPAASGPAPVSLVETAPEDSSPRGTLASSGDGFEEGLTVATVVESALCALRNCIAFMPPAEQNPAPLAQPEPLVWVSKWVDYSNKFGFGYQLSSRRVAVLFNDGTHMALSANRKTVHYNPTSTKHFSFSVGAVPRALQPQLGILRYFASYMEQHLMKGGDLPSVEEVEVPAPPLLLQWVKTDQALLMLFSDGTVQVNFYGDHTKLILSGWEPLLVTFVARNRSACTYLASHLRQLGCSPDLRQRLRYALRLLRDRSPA
test protocol: Kinase profiling in a biochemical assay panel (mobility shift assays and ELISA), %-inhibition at 1 μM; selectivity entropy
reported conditions: kinase PLK3; 1 μM
property: %-inhibition of PLK3 (%)
Please reply with the bare figure in % and do not write the unit itself.

Consider the following illustrative entries.
molecule: Cc1cn(-c2cc(NC(=O)c3ccc(C)c(Nc4nccc(-c5cccnc5)n4)c3)cc(C(F)(F)F)c2)cn1 [nilotinib]
measure unit: %
%-inhibition of PLK3: 26
--
molecule: CO[C@H]1C[C@@H]2CC[C@@H](C)[C@@](O)(O2)C(=O)C(=O)N2CCCC[C@H]2C(=O)O[C@H]([C@H](C)C[C@@H]2CC[C@@H](OC(=O)C(C)(CO)CO)[C@H](OC)C2)CC(=O)[C@H](C)/C=C(\C)[C@@H](O)[C@@H](OC)C(=O)[C@H](C)C[C@H](C)/C=C/C=C/C=C/1C [temsirolimus]
measure unit: %
%-inhibition of PLK3: -4.39

%-inhibition of PLK3 for O=S(=O)(c1cccc2cnccc12)N1CCCNCC1 [fasudil] is -4.66

====

target entity: panel of more than 300 wild-type and mutant kinases (313 kinase panel) (Homo sapiens, UniProt Q9NRM7)
test protocol: Kinase profiling in a biochemical assay panel (mobility shift assays and ELISA), %-inhibition at 1 μM; selectivity entropy
reported conditions: kinase LATS2; compound at 1 μM
property: %-inhibition of LATS2 (%)
Please reply with the bare figure in % and do not write the unit itself.

molecule: COc1cc(Nc2c(C#N)cnc3cc(OCCCN4CCN(C)CC4)c(OC)cc23)c(Cl)cc1Cl
%-inhibition of LATS2 (%): 28
--
molecule: COc1cc2nccc(Oc3ccc(NC(=O)C4(C(=O)Nc5ccc(F)cc5)CC4)cc3)c2cc1OC [cabozantinib]
%-inhibition of LATS2 (%): -5.61
--
molecule: Cc1cn(-c2cc(NC(=O)c3ccc(C)c(Nc4nccc(-c5cccnc5)n4)c3)cc(C(F)(F)F)c2)cn1
%-inhibition of LATS2 (%): -72
--
molecule: CO[C@H]1C[C@@H]2CC[C@@H](C)[C@@](O)(O2)C(=O)C(=O)N2CCCC[C@H]2C(=O)O[C@H]([C@H](C)C[C@@H]2CC[C@@H](OC(=O)C(C)(CO)CO)[C@H](OC)C2)CC(=O)[C@H](C)/C=C(\C)[C@@H](O)[C@@H](OC)C(=O)[C@H](C)C[C@H](C)/C=C/C=C/C=C/1C
%-inhibition of LATS2 (%): -4.56
--
molecule: CS(=O)(=O)CCNCc1ccc(-c2ccc3ncnc(Nc4ccc(OCc5cccc(F)c5)c(Cl)c4)c3c2)o1
%-inhibition of LATS2 (%): -8
--
molecule: Cc1nc(Nc2ncc(C(=O)Nc3c(C)cccc3Cl)s2)cc(N2CCN(CCO)CC2)n1
%-inhibition of LATS2 (%): -7
--
molecule: CC(=O)Nc1cccc(-n2c(=O)n(C3CC3)c(=O)c3c(Nc4ccc(I)cc4F)n(C)c(=O)c(C)c32)c1
%-inhibition of LATS2 (%): 1.87
--
molecule: Cc1ccc(Nc2nccc(N(C)c3ccc4c(C)n(C)nc4c3)n2)cc1S(N)(=O)=O
%-inhibition of LATS2 (%): -0.465

Let's switch to this molecule now.
%-inhibition of LATS2 for `N#CC[C@H](C1CCCC1)n1cc(-c2ncnc3[nH]ccc23)cn1` is 37
